- PROTOCOL_DESCRIPTION: yeast display, Sf9 membrane polyspecificity reagent, FACS + sequencing; frameworks hold sequencing errors
QUANTITY_MEASURED: polyreactivity (PSR sort gate)

// known answers, use as guide
[
  {
    "PRIMARY_SEQUENCE": "QVQLVESGGGLVQAGGSLRLSCAASGRTFFKYVMGWYRQAPGKERELVAAISYRSGSTYYADSVKGRFTISRDNAKNTVYLQMNSLKPEDTAVYYCAIEPPPVKGDYWGQGTQVTVSS",
    "polyreactivity (PSR sort gate)": "low polyreactivity"
  },
  {
    "PRIMARY_SEQUENCE": "QVQLVESGGGIVQAGGSLRLSCAASGGIFLGNAMVWYRQAPGKERELVAGITWSGGRTYYADSVKGRFTISRDNAKNTVYLQMNSLKPEDTAVYYCNKDTPGTRFYGIYSYDYWGQGTQVTVSS",
    "polyreactivity (PSR sort gate)": "low polyreactivity"
  },
  {
    "PRIMARY_SEQUENCE": "QVQLVESGGGLVQAGGSLRLSCAASGRTFFKYVMGWYRQAPGKERELVAAISSGGSTNYADSVKGRFTISRDNAKNTVYLQMNSLKPEDTAVYYCATYDPARSTQGYDYWGQGTQVTVSS",
    "polyreactivity (PSR sort gate)": "high polyreactivity"
  },
  {
    "PRIMARY_SEQUENCE": "QVQLVESGGGLVQAGGSLRLSCAASGRTFRWYAMGWYRQAPGKERELLASITWSGGSTYYADSVKGRFTISRDNAKNTVYLQMNSLKPEDTAVYYCAAVGRQSNYYVDYDYWGQGTQVTVSS",
    "polyreactivity (PSR sort gate)": "high polyreactivity"
  },
  {
    "PRIMARY_SEQUENCE": "QVQLVESGGGLVQAGGSLRLSCAASGFIFYAYAMGWYRQAPGKERELVAAITRSGGSTYYADSVKGRFTISRDNAKNTVYLQMNSLKPEDTAVYYCAARQRTKLGYWGQGTQVTVSS",
    "polyreactivity (PSR sort gate)": "high polyreactivity"
  },
  {
    "PRIMARY_SEQUENCE": "QVQLVESGGGLVQAGGSLRLSCAASGFTFNYYAMGSYRQAPGKERELVAAITWRSGRTSYADSVKGRFTISRDNAKNTVYLQMNSLKPEDTAVYYCAKYPIYSGLTRYGYWGQGTQVTVSS",
    "polyreactivity (PSR sort gate)": "high polyreactivity"
  },
  {
    "PRIMARY_SEQUENCE": "QVQLVESGGGLVQAGGSLRLSCAASGRTFYQNVMGWSRQAPGKERELVAAITWGGGSTYYADSVKGRFTISRDNAKNTVYLQMNSLKPEDTAVYYCNRTFRSRLPTSRGYDYWGQGTQVTVSS",
    "polyreactivity (PSR sort gate)": "low polyreactivity"
  },
  {
    "PRIMARY_SEQUENCE": "QVQLVESGGGLVQAGGSLRLSCAASGFIFVVYAMGWYRQAPGQERELVAAITYSGGSTYYADSVKGRFTISRDNAKNTVYLQMNSLKPEDTAVYYCAAPEHDREFDYWGQGTQVTVSS",
    "polyreactivity (PSR sort gate)": "low polyreactivity"
  },
  {
    "PRIMARY_SEQUENCE": "QVQLVESGGGLDQAGGSLRLSCAASGRIFEYNAMGWYRQAPGKERELVAAINYNDVSTYYADSVKGRFTISRDNAKNTVFFQINSLKPEDTAVYYCNVYGDKWSAAYGEYVYWGQGTQVTVSS",
    "polyreactivity (PSR sort gate)": "low polyreactivity"
  },
  {
    "PRIMARY_SEQUENCE": "QVQLEESGGGLVQAGGSLRLSCAASGSIIDYYAMGWYRQAPGKERELVADITVTGDGTYYADSVKGRFTISRDNAKNTVYLQMNSLKPEDTAVYYCAADFWLVSFQWDFEYDYWGQGTQVTVSS",
    "polyreactivity (PSR sort gate)": "low polyreactivity"
  }
]

State recorded polyreactivity (PSR sort gate) for all listed sequences.
1. QVQRVESEGGLVQAGGSLRLSCAASGRTFENYAMGWYRQAPGKERELVATINGRSGNTYYADSVKGRFTISRDNAKNTVYLQLNSLKPDDTAVYYCNAYYEGDYTVGYDYWGQGTQVTVSS
2. QVQLVESGGGLVQAGGSLRLSCAASGSTFTYYAMGWYRQAPGKERELVASITTSGGDTNYADSVKGRFTISRDNAKNTVYLQMNSLKPEDTAVYYCAADLYDPYHVYGYNYWGQGTQVTVSS
3. QVQLVESGGGLVQGGGSLRLSCAASGSIFSDYAMGWYRQAPGKEREFVAPITWSGTSTYYADSVKGRFTISRYNAKNTVYLQMNSLKPEDTAGDYSAADLLFWLGLVPGTIYDEFDYWGQGTQVTVAS
4. QVQLVESGGGLVQAGGSHRLSCAASGIIFRGYPMGWYRPAPGIERELVASITRRRGSTRYADSVKGRFTISRDNAKNTVYLQMNSLKPEDTAVYYCAAVGVGKTSTAYGYWGQGTQVTVSS

1: high polyreactivity; 2: low polyreactivity; 3: low polyreactivity; 4: high polyreactivity

Count: 7. Required value per item: polyreactivity (PSR sort gate).
1. QVQLVESGGGLVQAGGSLRLSCAASGRILWWYAMAWYRQAPGKERELVATITYSGGSTYADSVKGRFTISRDNAKNTVYLQMNSLKPVDTAVYYCAARLALYYGKSVYWGQGTQVTVSS
2. QVQLVESGGGLVQAGGSLRLSCAASGITIRRYAMGWYRQAPGKERELVAAISTSGGGTYYADSVKGRFTISRDNAKNTVYLQMNSLKPEDTAVYYCAARYLGYLLSGYPPYDYWGQGSQVTVSS
3. QVQLVESGGGLVQAGGSLRLSCAASGSIFTQYTMGWYRQAPGKERELVAAISRSGGRTYYADSVKGRFTISRDIAKNTVYLQMNSLKPEDTAVYYCAAEYTDKYEYWGQGTQVTVSS
4. QVQLVESGGGLVQAGGSLRLSCAASGRIVGRYAMGWYRQAPGKERELVAAISWSGGSTYYADSVKGRFTISRDNAKNTVYLQKNSLKPEDTAGYYCAADYDSYFRLYNYWGQGTQVTVSS
5. QVQLVESGGGLVQAGGRLRLSCAASGITFWTYAMGWYRQAPGKERELVARISKSGARTFYADSVKGRFTISRDNAKNTVYLQMNSLKPEDTAVYYCAADRGPRPVTWYDYWGQGTQVTVSS
6. QVQLGESGRGLVQEGGSLGLICAASGGIFKYNAMGWYRQAPGKERELVAAIRSTGSTYADSVKGRFTISRDNAKNTVYLQMNSLKPEDTAVYYCAAQYWRRKKYYYWGQGTQVTVSS
7. QVQLVESGGGLVQAGGSLRLSCAASGSIFAFYAMGLYRQAPGKERELVAAITASGGRTYYADSVKGRFTISRDIAKNTVYLQMNSLKPEDTAVYYCAAERQTIYIGLYGYPGWSQYNYWGQGTQVTVSS

1: high polyreactivity; 2: high polyreactivity; 3: high polyreactivity; 4: high polyreactivity; 5: high polyreactivity; 6: high polyreactivity; 7: low polyreactivity

* * *

- PROTOCOL_DESCRIPTION: yeast display, Sf9 membrane polyspecificity reagent, FACS + sequencing; frameworks hold sequencing errors
QUANTITY_MEASURED: polyreactivity (PSR sort gate)

These recorded examples may help you get a feel for the data.
[
  {
    "PRIMARY_SEQUENCE": "QVQLVESGGGLLQAGGSLRLSCAASGFTFYPNAMGWYRQAPGKERELVAAISRSGSSTYYADSVKGRFTISRDNAKNTVYLQMNSLKPEDTAVYYCNRYGRQYDFYYWGQGTQVTVSS",
    "polyreactivity (PSR sort gate)": "high polyreactivity"
  },
  {
    "PRIMARY_SEQUENCE": "QVQLVESGGGLVQAGGSLRLSCAASGFTFKYTDMGWYRQAPGKERELVAAINWRGGSTYYADSLKGRFTISRDNAKNTVYLQMNSLKPEDTAFYYCNLVYRPSRYDYWGQGTQVTVSS",
    "polyreactivity (PSR sort gate)": "high polyreactivity"
  },
  {
    "PRIMARY_SEQUENCE": "QVQLVESGGGLVQAGGSLRLSCAASGRTFAGNAMGWYRQAPGKEREMVAAISVSGSTTYYADSVKGRFTISRDNAKNTVYLQMNSLKPEDTAVYYCAARGLTYRSDMYYWGQGTQVTVSS",
    "polyreactivity (PSR sort gate)": "low polyreactivity"
  },
  {
    "PRIMARY_SEQUENCE": "QVQLVESGGGLVQAGGSLRLSCAASGSIFTWYAMGWSRQAPGKERELVAAITRGGSTYADSVKGRFTISRDNANYTVYLQMNSLKPADTAVYYCNAVYGVYDFNYWGQGTQVTVSS",
    "polyreactivity (PSR sort gate)": "low polyreactivity"
  },
  {
    "PRIMARY_SEQUENCE": "QVQLVESGGGLVQAGCSLRLSCAASGRTFARYVMGWYRQAPGKEREFVATISTSGTSTYYADSVKGRFTISRDNAKNTVYLQMNSLKPAETAVYYCAARRTTRGYDYWGQGTQVTVSS",
    "polyreactivity (PSR sort gate)": "high polyreactivity"
  },
  {
    "PRIMARY_SEQUENCE": "QVQLVESGGGLVQAGGSLRLSCAASGRTFTYYAMGWYRQAPGKERELVAAITSGGRTYYADSVKGRFTISRDNAKNTVYLQMNSLKPEDTAVYYCAARRIRDYYRSYDYWGQGTQVTVSS",
    "polyreactivity (PSR sort gate)": "high polyreactivity"
  },
  {
    "PRIMARY_SEQUENCE": "QVQLVESGGGLVQAGGSLRLSCAASGLTFTPNAMGWYRQAPGKEREFVAAITWRGGRTYYADSVKGRFTISRDNAKNTVYLQMNSLKPEDTAVYYCAVTYRPTYQLDYWGQGTQVTVSS",
    "polyreactivity (PSR sort gate)": "high polyreactivity"
  },
  {
    "PRIMARY_SEQUENCE": "QVQLVESGGGLVKAGGSLRLSCAASGSSLRYNAMGWYRQAPGKERELVAAISWGGGRTHYADSVKGRFTISRDNAKNSVYLQMNSLKPEDTAVYYCNGVSVRYLYYYWGQGTQVTVSS",
    "polyreactivity (PSR sort gate)": "high polyreactivity"
  }
]

Go through the list and state polyreactivity (PSR sort gate) for each entry.
1. QVQLVESGGGLVQAGGSLRLSCAASGSTFSTNARGWYRQAPGKERELVAAINWSTGSTHYADSVKGRFTISRDNAKNTVYLQMNSLKPEDTAVYFCAAEGPKQYDYWGQGYQVTVSS
2. QVQLVESGGGLVQAGGSLRLSCAASGRTIIYNTMGWYRQAPGKEREFVAAINWSGGSTYYADSAKGRFTISRDNAKNTVYLQMNSLKPEDTAVYYCNAEAGYYRALIYDYWGQGTQVTVSS
3. QVQLVESGGGLVQAGGSLRLSCAASGFIFRDNAMGWYRQAPGKERELVAAISERGGRTYYADSVKGRFTISRDNEKNTVYLQMISLKPEDTAVYYCAAEDIANFYYWGQGTQVTVSS

low polyreactivity
low polyreactivity
high polyreactivity
